// data source = paper PMC2248166

biological target: HLA B*1503 (Homo sapiens, UniProt P01889, A329T/A93T/A95T/C349S/D201E/D98Y/E187L/E204Q/K202T/N87E/Q94N/R155S/R180L/S121R/S35A/V306I/V36M/Y140S/Y91S); assay: biochemical
pIC50: −log10 of the molar value. Where a SMILES comes first, the peptide text is derived from it.
molecules and their reported pIC50
observation type: pIC50

molecule="CC(C)C[C@H](NC(=O)[C@H](CCC(=O)O)NC(=O)[C@@H](NC(=O)[C@H](CO)NC(=O)[C@H](CO)NC(=O)[C@@H](NC(=O)[C@H](CCC(N)=O)NC(=O)[C@@H](N)CO)C(C)C)[C@@H](C)O)C(=O)N[C@@H](Cc1ccccc1)C(=O)O [3102.1264] (H-SQVSSTELF-OH)" observation_type=pIC50 obs_value=8.74
molecule="CC[C@H](C)[C@H](NC(=O)[C@H](Cc1ccc(O)cc1)NC(=O)[C@H](Cc1c[nH]c2ccccc12)NC(=O)[C@H](CCSC)NC(=O)[C@@H](N)CO)C(=O)N1CCC[C@H]1C(=O)N[C@@H](CC(N)=O)C(=O)N[C@H](C(=O)N[C@@H](Cc1ccccc1)C(=O)O)C(C)C [3102.1192] (H-SMWYIPNVF-OH)" observation_type=pIC50 obs_value=9.14

---

target: HLA B*5101 (Homo sapiens, UniProt P01889, A329T/A93T/A95T/C349S/D138N/D201E/D98Y/E187L/E204Q/E69T/G107R/I218V/K202T/L105A/L119W/N104I/Q94N/R106L/R155S/R180L/S101N/S121T/S35A/S48A/V306I/V36M/Y195H/Y91F); type: binding
observation type: Normalized average relative binding affinity(ARB)

residue_codes="XXXXXXXNX [3064.0152]" obs_value=0.33
residue_codes="XXXXXXFXX [3064.0125]" obs_value=0.43
residue_codes="XXXXXXXGX [3064.0146]" obs_value=0.20
residue_codes="XXXXXFXXX [3064.0105]" obs_value=1.0
residue_codes="XXXXXXVXX [3064.0138]" obs_value=0.57
residue_codes="XXXXXXXVX [3064.0158]" obs_value=0.32
residue_codes="XXXTXXXXX [3064.0077]" obs_value=0.77
residue_codes="XXXXXXQXX [3064.0134]" obs_value=0.50
residue_codes="XXXXXXXIX [3064.0148]" obs_value=0.21
residue_codes="XXXXXWXXX [3064.0119]" obs_value=0.10
residue_codes="XXXQXXXXX [3064.0074]" obs_value=0.57
residue_codes="XXXXYXXXX [3064.0100]" obs_value=0.26
residue_codes="XXXXKXXXX [3064.0089]" obs_value=0.29
residue_codes="XXXIXXXXX [3064.0068]" obs_value=1.0
residue_codes="XXXVXXXXX [3064.0078]" obs_value=0.67
residue_codes="XXXLXXXXX [3064.0070]" obs_value=0.69
residue_codes="XXXXRXXXX [3064.0095]" obs_value=0.49
residue_codes="XXXNXXXXX [3064.0072]" obs_value=0.42
residue_codes="XXXXXGXXX [3064.0106]" obs_value=0.29
residue_codes="XXXGXXXXX [3064.0066]" obs_value=0.47
residue_codes="XXXFXXXXX [3064.0065]" obs_value=0.64
residue_codes="XXXXLXXXX [3064.0090]" obs_value=0.30
residue_codes="XXXXXYXXX [3064.0120]" obs_value=0.097
residue_codes="XXXXGXXXX [3064.0086]" obs_value=0.31
residue_codes="XXXXXXXRX [3064.0155]" obs_value=0.36
residue_codes="XXXXXXHXX [3064.0127]" obs_value=0.27
residue_codes="XXXMXXXXX [3064.0071]" obs_value=0.46
residue_codes="XXXXXXYXX [3064.0140]" obs_value=1.0
residue_codes="XXXXXXKXX [3064.0129]" obs_value=0.12
residue_codes="XXXRXXXXX [3064.0075]" obs_value=0.40
residue_codes="XXXXVXXXX [3064.0098]" obs_value=0.36
residue_codes="XXXXXXWXX [3064.0139]" obs_value=0.91
residue_codes="XXXPXXXXX [3064.0073]" obs_value=0.55

---

# pIC50 per record follows
target: HLA B*1503 (Homo sapiens, UniProt P01889, A329T/A93T/A95T/C349S/D201E/D98Y/E187L/E204Q/K202T/N87E/Q94N/R155S/R180L/S121R/S35A/V306I/V36M/Y140S/Y91S); assay: biochemical
pIC50: −log10 of the molar value. Where a SMILES comes first, the peptide text is derived from it.
observation type: pIC50

compound="CC[C@H](C)[C@H](NC(=O)[C@H](Cc1c[nH]cn1)NC(=O)[C@H](Cc1ccc(O)cc1)NC(=O)[C@H](C)NC(=O)[C@H](CCCCN)NC(=O)[C@@H](N)CCCNC(=N)N)C(=O)N[C@H](C(=O)N[C@@H](Cc1ccccc1)C(=O)N[C@@H](Cc1ccccc1)C(=O)O)[C@@H](C)CC [3102.1054] (H-RKAYHIIFF-OH)" obs_value=10.43
compound="CC[C@H](C)[C@H](NC(=O)[C@H](CO)NC(=O)[C@H](CO)NC(=O)[C@H](CO)NC(=O)[C@H](Cc1ccc(O)cc1)NC(=O)[C@H](C)NC(=O)[C@H](CC(C)C)NC(=O)[C@@H](N)C(C)C)C(=O)N[C@@H](Cc1ccccc1)C(=O)O [3102.1150] (H-VLAYSSSIF-OH)" obs_value=8.27
compound="CC(C)C[C@H](NC(=O)[C@H](Cc1ccccc1)NC(=O)[C@H](CCCNC(=N)N)NC(=O)[C@@H](N)CC(C)C)C(=O)N[C@@H](CCC(=O)O)C(=O)N[C@@H](CCCCN)C(=O)N[C@H](C(=O)N[C@@H](CO)C(=O)N[C@@H](Cc1ccccc1)C(=O)O)[C@@H](C)O [3102.1139] (H-LRFLEKTSF-OH)" obs_value=8.66

---

target: H-2 D^b (Mus musculus, UniProt P01899); type: binding
Sequence (P01887 21-119): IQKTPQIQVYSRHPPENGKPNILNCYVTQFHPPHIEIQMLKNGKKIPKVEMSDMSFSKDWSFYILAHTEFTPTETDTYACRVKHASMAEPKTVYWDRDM
Sequence (P01899 25-362): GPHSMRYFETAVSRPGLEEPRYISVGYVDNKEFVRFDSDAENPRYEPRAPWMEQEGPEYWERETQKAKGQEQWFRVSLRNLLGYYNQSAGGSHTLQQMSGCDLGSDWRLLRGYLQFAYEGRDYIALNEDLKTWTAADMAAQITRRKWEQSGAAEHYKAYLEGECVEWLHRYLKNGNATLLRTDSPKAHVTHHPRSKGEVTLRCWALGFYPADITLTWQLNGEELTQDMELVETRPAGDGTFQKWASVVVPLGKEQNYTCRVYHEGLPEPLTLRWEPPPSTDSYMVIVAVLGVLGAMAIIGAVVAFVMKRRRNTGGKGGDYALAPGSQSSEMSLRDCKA
Listing: Normalized average relative binding affinity (ARB), H-2 Db of selected sequences
observation type: Normalized average relative binding affinity (ARB), H-2 Db

residue_codes="XXDXXXXXX [3064.0043]" obs_value=0.022
residue_codes="XXXAXXXXX [3064.0061]" obs_value=0.69
residue_codes="XXYXXXXXX [3064.0060]" obs_value=0.24
residue_codes="XCXXXXXXX [3064.0022]" obs_value=0.22
residue_codes="XXKXXXXXX [3064.0049]" obs_value=0.028
residue_codes="XHXXXXXXX [3064.0027]" obs_value=0.099
residue_codes="PXXXXXXXX [3064.0013]" obs_value=0.030
residue_codes="HXXXXXXXX [3064.0007]" obs_value=0.17
residue_codes="XXHXXXXXX [3064.0047]" obs_value=0.20
residue_codes="NXXXXXXXX [3064.0012]" obs_value=0.31
residue_codes="XXIXXXXXX [3064.0048]" obs_value=0.24
residue_codes="XNXXXXXXX [3064.0032]" obs_value=0.11
residue_codes="SXXXXXXXX [3064.0016]" obs_value=0.12
residue_codes="YXXXXXXXX [3064.0020]" obs_value=0.57
residue_codes="XXXCXXXXX [3064.0062]" obs_value=1.0
residue_codes="XPXXXXXXX [3064.0033]" obs_value=0.036

---

biological target: HLA A*3201 (Homo sapiens, UniProt P04439, A270S/D101S/D185E/E176V/E277Q/F133L/G103R/G107R/G231S/H175R/I121M/I218V/I322F/K168Q/L105A/L300P/L318F/M331R/P208A/P217A/Q94H/R106L/R138Q/S129P/T104I/T323A/T345S/V100E/V321M/V358M); assay: biochemical; type: binding
observation type: Normalized average relative binding affinity(ARB)

residue_codes="XXXXXXSXX [3064.0136]" obs_value=0.14
residue_codes="XXXXXXXNX [3064.0152]" obs_value=0.42
residue_codes="XXXXAXXXX [3064.0081]" obs_value=0.14
residue_codes="XXXXXIXXX [3064.0108]" obs_value=0.83
residue_codes="XXXXTXXXX [3064.0097]" obs_value=0.062
residue_codes="XXXIXXXXX [3064.0068]" obs_value=0.15
residue_codes="XXXXXXVXX [3064.0138]" obs_value=1.0
residue_codes="XXXXXEXXX [3064.0104]" obs_value=0.35
